These entries and their values trace back to ChEMBL document CHEMBL4513216.

assay: Toxicity liver stage against HepG2, at 10uM; type: cell-based; parameters: test concentration 10 uM, cell line HepG2-A16-CD81EGFP; settings: human, HepG2-A16-CD81EGFP cells; read-out: INHIBITION
I'd be grateful if you could share measured cytotoxicity at 10 µM for these entries.
Answer in %, number only, no unit symbol.

Entry O=C(O)C1(n2cccn2)CCN(Cc2nc(-c3ccccc3)no2)CC1 — recorded cytotoxicity at 10 µM = 6.74

Entry NCCO[C@H]1C[C@@H](O)C12CCN(C(=O)COc1cccc(Cl)c1)CC2 — recorded cytotoxicity at 10 µM = -4.32

Entry Cc1nnc(CN2CCCCC2c2nc(-c3ccccc3)no2)s1 (stereo unspecified) — recorded cytotoxicity at 10 µM = -48.5

Entry O=C(Cc1cccc(F)c1)NCCCNC(=O)c1cccc(O)c1 — recorded cytotoxicity at 10 µM = 1.06

Entry Cc1ccc(S(=O)(=O)N2C[C@H]3C[C@H](NC(=O)c4ccccn4)[C@H]3C2)cc1 — recorded cytotoxicity at 10 µM = 64.3

Entry CS(=O)(=O)NCCNC(=O)Cc1ccc(Br)s1 — recorded cytotoxicity at 10 µM = -7.21

Entry CC(C)Oc1ccccc1CNC(=O)c1[nH]ncc1Br — recorded cytotoxicity at 10 µM = 17.5

Entry Cc1nc(C)c(CC(=O)Nc2nc(C)c(C)s2)c(=O)[nH]1 — recorded cytotoxicity at 10 µM = -6.28

Entry COCCN1CCCC2(CCN(c3ncnc(C)c3C)C2)C1=O (stereo unspecified) — recorded cytotoxicity at 10 µM = 33.4

Entry CN(Cc1nc(Cc2cccc(C(F)(F)F)c2)no1)C(C1CC1)C1CC1 — recorded cytotoxicity at 10 µM = 0.92

Entry O=C(NC1CCCN(CCc2ccccc2)C1)c1cnccn1 (stereo unspecified) — recorded cytotoxicity at 10 µM = 7.95
